system: M14 melanoma; assay: NCI-60 one-dose screen, 48 h (100 = growth as untreated, 0 = no growth, -100 = all killed); settings: 10 µM unless noted
About 83,000 compounds went through this panel and 20% of them were active in at least one assay; those are over-represented in the sample as a whole.
MEASUREMENT KIND: growth (%)
Provide the reading as a plain figure in %.

Here's what some known entries look like.
• CCC(=O)Oc1ccc(/C=N/NC(N)=S)nc1 = 9.1
• Cc1cc(Cl)ccc1NC(=O)/C(Cl)=C1/Sc2ccccc2NC1=O = 83.8

Name the recorded growth of the compound listed here: `COc1cc(N)ccc1Nc1c2ccccc2nc2ccccc12`
94.1

Name the recorded growth of the compound listed here: `O=C(NC(=S)Nc1ccccn1)c1ccccc1`
91.9

Name the recorded growth of the compound listed here: `N#C/C(=C/N1C(=O)/C(=C/c2ccc([N+](=O)[O-])cc2)SC1=S)c1nc2ccccc2s1`
94.6

Name the recorded growth of the compound listed here: CC1CCC2(C(=O)O)CCC3(C)C(=CCC4C5(C)CC(O)C(O)C(C)(CO)C5C(O)CC43C)C2C1C (stereo unspecified)
53.9

Name the recorded growth of the compound listed here: `COc1ccc(N)c2c1C(=O)c1ccccc1C2=O`
117

Name the recorded growth of the compound listed here: `Cc1cc(N=C2C=CC(=[N+](C)C)C=C2)c(N)cc1N`
107

----------
test system: HCT-116 colon; assay: NCI-60 one-dose screen, 48 h (100 = growth as untreated, 0 = no growth, -100 = all killed); conditions: 10 µM
This is part of a sample that, as a whole, favours compounds with a hit. Of some 83,000 tested, about 20% had one in any assay.
MEASUREMENT KIND: growth (%)
Provide the reading as a plain figure in %.

Here's what some known entries look like.
* Cc1cc(O)c2c(c1O)C(=O)C13C(=C2O)C(=O)C2C(O)C1C1C(O)C3C(=O)C3=C(O)c4c(O)cc(C)c(O)c4C(=O)C321 (stereo not drawn) | 2.8
* O=Nc1ccc(Nc2ccccc2)cc1 | 78.4
* O=S(=O)(c1cc(Cl)ccc1O)c1cc(Cl)ccc1O | 77.1
* O=C(NC(=S)Nc1ccccn1)c1ccccc1 | 87.9
* Cc1cc(C)c(N2C(=O)CC(Sc3ccccc3N)C2=O)c(C)c1 (stereo not drawn) | 79.2
* CC1CCC2(C(=O)O)CCC3(C)C(=CCC4C5(C)CC(O)C(O)C(C)(CO)C5C(O)CC43C)C2C1C (stereo not drawn) | 103
* O=c1[nH]cc(/C=N\Nc2ccccc2)c(=O)[nH]1 | 57

Shift focus to the following entry.
Name the recorded growth of the compound listed here: COc1cccc(C(c2cc3c(cc2O)OCO3)N2CCOCC2)c1OC (stereo not drawn)
102

----------
Recorded growth by entry
tested on: RPMI-8226 leukemia; assay: NCI-60 one-dose screen, 48 h (100 = growth as untreated, 0 = no growth, -100 = all killed); conditions: 10 µM
The panel holds about 83,000 compounds, 20% with a hit somewhere; the sample as a whole holds those more often.
Provide the reading as a plain figure in %.

Here's what some known entries look like.
- Cc1cc(N=C2C=CC(=[N+](C)C)C=C2)c(N)cc1N: 65.7
- CN(C)CCNc1cccc2sc3ccc(O)cc3c(=O)c12: 73.4
- CC1CCC2(C(=O)O)CCC3(C)C(=CCC4C5(C)CC(O)C(O)C(C)(CO)C5C(O)CC43C)C2C1C (stereo not drawn): 128
- Nc1nc(N)c2cc(Sc3ccc4ccccc4c3)ccc2n1: -11.9
- CC[C@@]1(OC(=O)CN(C)C)C(=O)OCc2c1cc1n(c2=O)Cc2cc3c(N)cccc3nc2-1: 2.58

Name the recorded growth of the compound listed here: `COc1ccc(C(C#N)=C2C=CC(=NO)C=C2)cc1`
22

Name the recorded growth of the compound listed here: `O=Nc1ccc(Nc2ccccc2)cc1`
27.1

Name the recorded growth of the compound listed here: `COc1ccc2c(c1)[nH]c1c(/C=C/c3ccccc3)nccc12`
25.2
